Origin of measurements: the supplement of paper PMC9732359

experiment: protein stability index of a GFP-peptide fusion (yeast GPS) (PSI 1-4); higher = more stable; sorted into four equal gates, so the index is relative within each strain; details: ubr1∆
# protein stability index annotations

Given the sequence ANTGGGLFGANSNSNSG [YGL172W/NUP49] , what is its reported protein stability index?
2.22

# input sequence: DFISPELIIDKVTCSSN [MED1] ; wanted: its protein stability index
1.37

Reported protein stability index, sequence DIVQYHLELYTSQYGTP [PRE3] : ____
2

* * *

assay: protein stability index of a GFP-peptide fusion (yeast GPS) (PSI 1-4); higher = more stable; sorted into four equal gates, so the index is relative within each strain; conditions: pdr5∆
Measured protein stability index, listed per entry for reference.
Reply: number alone, nothing else.

Sample LGQYVQAHTLYNSVRPF [PRE10] — what was its protein stability index?
2.87

Can you look up the measured protein stability index of NWSKEDLQKLLKGIQEF [SWI3] for me?
3.07

Reported protein stability index for TFANPNRTFTDPPFRIE [TAF14] : what is it?
2.76

Look up protein stability index: NNFRESDIIILKGEIED [SIR4]
2.12

Given the entry RSEEEVTKLNVLVDEIK [YIL149C/MLP2] , report its measured protein stability index.
3.5

Further cases:
Can you look up the measured protein stability index of FRGNISQPKIGYGSNKK [RPL32] for me?
2.88

Could you tell me which protein stability index is on file for FAAKQRQELQMQRQQQG [SNF2] ?
2.84

* * *

assay: protein stability index of a GFP-peptide fusion (yeast GPS) (PSI 1-4); higher = more stable; sorted into four equal gates, so the index is relative within each strain; details: doa10∆
I'd appreciate it if you could label each record using protein stability index and these ranges: 0: < 2; 1: ≥ 2 and < 3; 2: ≥ 3

Band for GCYFEEKRYDDKLLDFI [CSN12] ?
2

Hi, small favor: classify YHTNPGHSQFTSHYQNY [RPN4] by its protein stability index when you get a moment.
1

Entry ISQVSSIHAIGSIKEDY [RPB7] belongs to which category?
1

Consider EDEMMHEEDQKTNIIEK [RPN12] . To which protein stability index class does it belong?
2

Any idea which band VPVRSFKGHSHIVQDCT [ASC1] is in?
1

Which class holds ASLDGTIRLWECGTGTT [RPN14] ?
1

Entry IDQVMMSVSDNDQALIK [RET1] belongs to which category?
1

Category of TAGAAANALGGLGVNRR [SSN3] :
2

Form: Item = IKEENDMENMADEQKRS [ARP7] ; Class = ?
2

State the class of the sequence shown: TSLLDSLISVLEASLNS [YJL039C/NUP192]
0

Next:
Exam item: assign QYMEELADDDEERFSEL [RPL5] to the correct category.
0

Which class holds YYSRITLLRLNELLDLT [RPN5] ?
1

Could you place DILLRLCVLWDDLQSSV [YCG1] in its proper category? Many thanks.
0

* * *

assay: protein stability index of a GFP-peptide fusion (yeast GPS) (PSI 1-4); higher = more stable; sorted into four equal gates, so the index is relative within each strain; details: pdr5∆
measured attribute: protein stability index

// query protein stability index value for entry LSLMLESPNYCNALIHI [SRB4]
1.78

Others:
Quick one: protein stability index for SNEDVMMTGAEQDPYSN [RPB3] ?
3.09

Which protein stability index value belongs to LLSLINSTHLLPLQPIE [SNF12] ?
2.46

// query protein stability index value for entry SRKAHGLNAKQLYKARM [POP1]
3.4

* * *

experiment: protein stability index of a GFP-peptide fusion (yeast GPS) (PSI 1-4); higher = more stable; sorted into four equal gates, so the index is relative within each strain; conditions: san1∆
measured attribute: protein stability index
Quick one: just the number, no unit, thanks!

Examples with their reported protein stability index follow.
Fill blank: measured protein stability index of the sequence MEADPSLHPLFEQFEKF [RPN9] is ____.
2.39

Give its protein stability index value. Item: PRYTYHTIFSDVCKTRF [YML031W/NDC1]
2.62

Next:
# input sequence: LGPLFKKIVDDTIMENP [IRR1] ; wanted: its protein stability index
2.44

Consider the sequence TNSNNTPLQSQLNLNNL [PGD1] and give its measured protein stability index.
3

Please look up its protein stability index: ILDLKEFDRRILKKSLM [RTT102]
3.19

* * *

# Lookup of reported protein stability index keyed by entry
assay: protein stability index of a GFP-peptide fusion (yeast GPS) (PSI 1-4); higher = more stable; sorted into four equal gates, so the index is relative within each strain; settings: doa10∆
Note: the reply should be a number with no unit written.

Record excerpt, results attached:
I'd like to know its protein stability index. The sequence in question is LVGRLRKCETQKQWDDI [YCS4]
2.21

Given the entry YSIPHPSENLLNIRIQT [RPC19] , report its measured protein stability index.
2.1

For LKGIQEFGADWYKVAKN [SWI3] , what is its reported protein stability index?
3.25

# query: protein stability index of entry NYTKDNEYYPMCEQALS [YCS4]
2.25

What value of measured protein stability index is listed for IPDLSIQNDIYLNDLMI [RPN12] ?
2.99

Given the entry GWDSLASRNVWSFYNGN [SNU114] , report its measured protein stability index.
2.99

With those in mind, consider the next sequence.
Would you mind telling me what protein stability index value was observed for FVYNKVNETEAILYTKP [YGR119C/NUP57] ?
2.76

* * *

Below: a set of entries, each annotated with reported protein stability index.
assay: protein stability index of a GFP-peptide fusion (yeast GPS) (PSI 1-4); higher = more stable; sorted into four equal gates, so the index is relative within each strain; settings: doa10∆
Form field (numeric): enter value without unit.

So what does the record say about protein stability index for ESKLIPQENDLESKMSE [SMC3] ?
2.81

* * *

The entries below are paired with their reported protein stability index.
assay: protein stability index of a GFP-peptide fusion (yeast GPS) (PSI 1-4); higher = more stable; sorted into four equal gates, so the index is relative within each strain; conditions: san1∆
Answer as a number with no unit attached.

These recorded examples may help you get a feel for the data.
Look up protein stability index for this sequence: DRGIANIRNNIESQNLD [SRB4]
2.98

Sample SDIVFIHQNAGRLLRAM [BRR2] — what was its protein stability index?
1.9

// lookup protein stability index for PKNYSLHGLRSFYDAIF [YJL039C/NUP192]
2.37

Returns the measured protein stability index for the input sequence. Input: LANLIRDALRNIKNTNE [RRP6]
2.63

May I ask what protein stability index has been recorded for DCNSALDQLLVLEKKTR [RPN5] ?
2.22

More entries:
Looking for the measured protein stability index of ENSYLRGLTPQEFFFHA [RPO21] , can you help?
2.45

// lookup protein stability index for NNFRESDIIILKGEIED [SIR4]
2.32

// returns reported protein stability index for input FHFRAPSRIFYKALRGM [RPL16A]
2.27

# get_value(readout='protein stability index', item= MSFIFPSYAERQSSDES [YML031W/NDC1] )
2.74

Fill in the blank: the reported protein stability index of LSSHSSTNSNSKPSTAS [RPN4] is ____.
2.93

Any idea what protein stability index was measured for GRIRTTREDVSPHYNSQ [SSN3] ?
1.89

# get_value(readout='protein stability index', item= AATVRSTIRRLREMVEA [RPL43A] )
2.74

* * *

Recorded protein stability index values for a group of sequences are listed next.
test: protein stability index of a GFP-peptide fusion (yeast GPS) (PSI 1-4); higher = more stable; sorted into four equal gates, so the index is relative within each strain; conditions: pdr5∆
A bare number is all that is needed in reply.

Reference set, count: 2
What value of measured protein stability index is listed for IQELRKLLKSLLLNYLE [MED7] ?
1.24

Look up protein stability index for this sequence: TQAKRIFLQQFLQELLK [SWI1]
2.42

Here is the next item to consider.
So what does the record say about protein stability index for GDLLNAEVQSLFQDGSA [RRP4] ?
2.74

* * *

assay: protein stability index of a GFP-peptide fusion (yeast GPS) (PSI 1-4); higher = more stable; sorted into four equal gates, so the index is relative within each strain; settings: san1∆
Entry flag: fulfilled if protein stability index reaches 3; not fulfilled if it does not.

Worked cases, answers included:
Hi, just wondering whether EVLEKDAAIVKKYKNKT [YGR119C/NUP57] shows protein stability index of 3 or higher.
fulfilled

Confirm if protein stability index reported for the sequence KTQFSWQYYYYTLTEEG [RPS10A] is 3 or above.
not fulfilled

Confirm if protein stability index reported for the sequence VGVENNGQYAAFVKDMQ [RPC37] is 3 or above.
fulfilled

Threshold query (protein stability index >= 3) on PDGVVVHRDDPALVGKL [SNF6]
fulfilled

Does protein stability index meet or surpass 3 for SYKDSGLWGFSTATRNV [COR1] ?
fulfilled

Could you tell me if the measured protein stability index of LAFIPNILALNLVSLLI [YML031W/NDC1] reaches 3 or more?
not fulfilled

***
Please tell me: is the sequence KEPVALIETVRQMKDVN [RPN2] at or over 3 in terms of protein stability index?
fulfilled

Is reported protein stability index greater than or equal to 3 here: GRNLGRIGTIVHKERHD [RPS4A]
not fulfilled

Check if protein stability index >= 3 (inclusive). Item: STKVENSAIIQNLRKEL [YIL149C/MLP2]
fulfilled
